Overview of reported protein stability index across a group of variants:
B1: ZNF263 (parent)
chain: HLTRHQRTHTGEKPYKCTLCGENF

Variants of: B1
Assay: protein stability index of a GFP-peptide fusion (GPS, HEK-293T) (PSI 1-6); higher = more stable;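 note: lentivirally expressed fusions sorted by FACS into six bins by GFP to DsRed ratio, PSI derived from sequencing read proportions per bin multiplied by bin number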
Conditions: c terminus: a fixed tail appended
Write the number on its own, no unit after it.

[
  {
    "Biosequence": "HLTRYQRTHTGEKPYKCTLCGENF",
    "protein stability index": 2.39
  }
]

# query: protein stability index of entry "HLTRHQRTHTHEKPYKCTLCGENF" 2.83

# query: protein stability index of entry "HLTRHQTTHTGEKPYKCTLCGENF" 3.6

# query: protein stability index of entry "HLTRHQRTHTGEKPYKTTLCGENF" 3.06

# query: protein stability index of entry "HLTRHQRTHTGEKPYKCTCCGENF" 3.88

# query: protein stability index of entry "HLTRHQRTHTGEKPYDCTLCGENF" 3.74

# query: protein stability index of entry "HLTRHQRTHTGEKPYKCYLCGENF" 3.09

# query: protein stability index of entry "HLTRHQRTHTGEKPYKCHLCGENF" 2.65

# query: protein stability index of entry "VLTRHQRTHTGEKPYKCTLCGENF" 2.46

# query: protein stability index of entry "HLTRHQRTHTGEKPYCCTLCGENF" 2.83

# query: protein stability index of entry "HLTRHQRLHTGEKPYKCTLCGENF" 2.78
